TGT: hOCT1 (Homo sapiens, UniProt O15245)
Construct: expressed in transfected cells
Sequence (O15245 whole entry): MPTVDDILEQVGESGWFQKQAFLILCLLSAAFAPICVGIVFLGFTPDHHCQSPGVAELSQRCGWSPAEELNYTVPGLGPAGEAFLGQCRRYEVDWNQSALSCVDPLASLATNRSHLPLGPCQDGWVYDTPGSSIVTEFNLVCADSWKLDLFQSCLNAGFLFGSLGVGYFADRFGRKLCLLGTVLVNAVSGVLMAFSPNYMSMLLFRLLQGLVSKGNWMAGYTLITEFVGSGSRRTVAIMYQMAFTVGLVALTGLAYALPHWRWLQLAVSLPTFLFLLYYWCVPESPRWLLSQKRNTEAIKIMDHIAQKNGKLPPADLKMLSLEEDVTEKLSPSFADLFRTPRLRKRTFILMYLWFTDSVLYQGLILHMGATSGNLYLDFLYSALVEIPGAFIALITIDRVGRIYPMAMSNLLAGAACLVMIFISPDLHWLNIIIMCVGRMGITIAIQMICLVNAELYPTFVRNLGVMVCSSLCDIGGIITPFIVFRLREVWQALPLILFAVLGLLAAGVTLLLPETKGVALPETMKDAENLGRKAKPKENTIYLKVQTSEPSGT
PROCEDURE DETAILS: [3H]MPP+ uptake inhibition assay, HEK293 cells stably expressing hOCT1
Type: cell-based
// classify: if (IC50 < 2 µM) y else n

**Query** Please determine if CNC1(c2ccccc2F)CCCCC1=O (centres unmarked) is below 2 µM in terms of IC50.
**Result** n

**Query** Also, `CN(C)CCc1c[nH]c2cccc(O)c12` please.
**Result** n

**Query** Also, CNC(C)Cc1ccc2c(c1)OCO2 (centres unmarked) please.
**Result** y

**Query** Also, `CCC[C@H](C(=O)c1ccccc1)N1CCCC1` please.
**Result** n

**Query** Also, `C[C@H](N)Cc1ccccc1` please.
**Result** n

**Query** Also, `CCC[C@@H](C(=O)c1ccccc1)N1CCCC1` please.
**Result** y

**Query** Also, `COC(=O)[C@H]1[C@@H](OC(=O)c2ccccc2)C[C@@H]2CC[C@H]1N2C` please.
**Result** n

**Query** Also, `CN(C)C[C@H]1CCCC[C@]1(O)c1cccc(O)c1` please.
**Result** n

---

For each of the compounds below, state its pIC50.
TGT: hOCT2 (Homo sapiens, UniProt O15244)
Construct: expressed in transfected cells
Sequence (O15244 whole entry): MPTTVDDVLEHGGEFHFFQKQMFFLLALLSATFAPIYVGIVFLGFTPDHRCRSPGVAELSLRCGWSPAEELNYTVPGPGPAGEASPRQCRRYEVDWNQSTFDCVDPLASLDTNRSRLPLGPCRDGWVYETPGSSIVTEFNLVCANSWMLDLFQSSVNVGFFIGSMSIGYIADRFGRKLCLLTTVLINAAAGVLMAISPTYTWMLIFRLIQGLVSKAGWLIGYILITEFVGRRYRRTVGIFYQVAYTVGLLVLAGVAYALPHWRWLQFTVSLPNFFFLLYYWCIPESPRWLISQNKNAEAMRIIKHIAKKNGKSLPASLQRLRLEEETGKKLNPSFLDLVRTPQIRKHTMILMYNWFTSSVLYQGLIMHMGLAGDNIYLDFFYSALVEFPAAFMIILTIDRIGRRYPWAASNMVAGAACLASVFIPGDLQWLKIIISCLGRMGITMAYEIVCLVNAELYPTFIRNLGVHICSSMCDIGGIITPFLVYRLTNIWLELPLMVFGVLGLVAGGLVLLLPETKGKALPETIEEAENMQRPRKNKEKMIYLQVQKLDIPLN
PROCEDURE DETAILS: [3H]MPP+ uptake inhibition assay, HEK293 cells stably expressing hOCT2
Format: cell-based
When answering, recall that pIC50 equals minus log10 of the concentration in mol/L, and write that number alone.

**Query** Which value of pIC50 has been reported for `CCC[C@H](C(=O)c1ccccc1)N1CCCC1` in the records?
**Result** 4.88

**Query** Also, `COC(=O)[C@H]1[C@@H](OC(=O)c2ccccc2)C[C@@H]2CC[C@H]1N2C` please.
**Result** 4.56

**Query** Also, `C[C@H](N)Cc1ccccc1` please.
**Result** 5.66

---

TGT: hOCT3 (Homo sapiens)
Construct: expressed in transfected cells
Sequence (O75751 whole entry): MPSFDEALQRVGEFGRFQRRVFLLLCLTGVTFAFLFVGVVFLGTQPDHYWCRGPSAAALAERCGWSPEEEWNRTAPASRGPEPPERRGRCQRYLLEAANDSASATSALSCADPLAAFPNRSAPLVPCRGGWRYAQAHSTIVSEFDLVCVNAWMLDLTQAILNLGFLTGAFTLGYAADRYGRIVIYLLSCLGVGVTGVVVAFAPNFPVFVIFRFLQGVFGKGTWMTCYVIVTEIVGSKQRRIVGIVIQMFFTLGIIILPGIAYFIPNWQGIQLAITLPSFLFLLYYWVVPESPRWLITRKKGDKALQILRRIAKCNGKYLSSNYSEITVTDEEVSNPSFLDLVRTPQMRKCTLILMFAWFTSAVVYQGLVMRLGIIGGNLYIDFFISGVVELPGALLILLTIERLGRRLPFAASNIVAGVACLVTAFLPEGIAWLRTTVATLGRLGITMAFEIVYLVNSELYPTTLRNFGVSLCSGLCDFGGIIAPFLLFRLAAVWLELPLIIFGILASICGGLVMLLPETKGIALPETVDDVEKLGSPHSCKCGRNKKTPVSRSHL
PROCEDURE DETAILS: [3H]MPP+ uptake inhibition assay, HEK293 cells stably expressing hOCT3
Type: cell-based
For each of the molecules below, state its IC50.
Lab book: enter the figure in µM, no units written.

**Query** Which value of IC50 has been reported for CNC1(c2ccccc2F)CCCCC1=O (stereo not drawn) in the records?
**Result** 265

**Query** Also, CNC1(c2ccccc2Cl)CCCCC1=O (stereo not drawn) please.
**Result** 1030

**Query** Also, `CCC[C@@H](C(=O)c1ccccc1)N1CCCC1` please.
**Result** 457
